Numbers sourced from patent US11780834B2.

- Protocol text: Approximate solubility of Compound B Form B material in 20 solvents at RT
- Assay type: physicochemical
- Run parameters: organic solvent or mixture, thermodynamic from solid, EtOAc
Counter-ions that a name gives are not always drawn.
Readout name: solubility

Compound | Result
C[C@@H]1Cc2c([nH]c3ccccc23)[C@@H](c2c(F)cc(NC3CN(CCCF)C3)cc2F)N1CC(F)(F)CO [Compound B, tartrate] | < 1.9 mg/mL

###

- Experimental system: UniProtKB P10632
- Sequence (P10632 1-490): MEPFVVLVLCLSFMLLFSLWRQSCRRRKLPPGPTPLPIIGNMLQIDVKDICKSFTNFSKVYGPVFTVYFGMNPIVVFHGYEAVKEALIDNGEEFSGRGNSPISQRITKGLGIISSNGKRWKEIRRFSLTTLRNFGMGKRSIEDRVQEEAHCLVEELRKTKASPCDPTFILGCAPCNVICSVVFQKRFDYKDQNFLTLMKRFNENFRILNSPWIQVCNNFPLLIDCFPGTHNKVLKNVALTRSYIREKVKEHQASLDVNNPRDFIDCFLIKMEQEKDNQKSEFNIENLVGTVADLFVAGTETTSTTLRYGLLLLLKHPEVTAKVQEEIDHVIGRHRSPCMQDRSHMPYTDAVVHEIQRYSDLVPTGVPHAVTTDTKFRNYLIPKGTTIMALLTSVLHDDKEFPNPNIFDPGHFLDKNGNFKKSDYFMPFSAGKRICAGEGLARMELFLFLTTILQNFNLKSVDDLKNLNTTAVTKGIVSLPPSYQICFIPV
Where a name gives a salt, the structure may show the parent alone.

Compound | IC50 [µM]
C[C@@H]1Cc2c([nH]c3ccccc23)[C@@H](c2c(F)cc(NC3CN(CCCF)C3)cc2F)N1CC(F)(F)CO [Compound B, tartrate] | 21
